- Tested on: HCT-116 colon
- assay-procedure: NCI tumour cell line growth inhibition, 48 h; in the data active = GI50 below about 0.43 µM; inactive = the rest
Select the correct class. Options are True for active, False for inactive and nothing else.

Prompt: Please share the test call associated with CCOC(=O)c1c2c(n(Cc3ccc(Cl)cc3Cl)c1C)-c1nc(Cc3ccccc3)[nH]c1C(=O)C2=O .
Response: False

Prompt: Please share the test call associated with O=C1c2ccc3c4c(ccc(c24)C(=O)N1CCCNCc1ccccc1F)C(=O)N(CCCNCc1ccccc1F)C3=O .
Response: True

Prompt: Please share the test call associated with C=C1C(=O)O[C@H]2[C@H]1CC/C(COC(=O)NCc1[nH]nc3ccccc13)=C\CC[C@@]1(C)O[C@@H]21 .
Response: False

Prompt: Please share the test call associated with c1cc(N2CCN(c3ccc(C4=NCCN4)cc3)CC2)ccc1C1=NCCN1 .
Response: False

Prompt: Please share the test call associated with O=[N+]([O-])c1cc([N+](=O)[O-])c(N2CCCC2)cc1NN=C(c1ccc(O)cc1)c1ccc(O)cc1 .
Response: False

Prompt: Please share the test call associated with Cc1ccc2c(NCCCN(C)C)c3c(C)nn(C)c3nc2c1 .
Response: False

Prompt: Please share the test call associated with CCCCSSC(=S)N(CC)CC .
Response: False

The measurements presented in this section are drawn from PubChem BioAssay (NCI).
